These entries and their values trace back to paper PMC6272913.

# Experimental target: UniProtKB P49759
# Sequence (P49759 whole entry): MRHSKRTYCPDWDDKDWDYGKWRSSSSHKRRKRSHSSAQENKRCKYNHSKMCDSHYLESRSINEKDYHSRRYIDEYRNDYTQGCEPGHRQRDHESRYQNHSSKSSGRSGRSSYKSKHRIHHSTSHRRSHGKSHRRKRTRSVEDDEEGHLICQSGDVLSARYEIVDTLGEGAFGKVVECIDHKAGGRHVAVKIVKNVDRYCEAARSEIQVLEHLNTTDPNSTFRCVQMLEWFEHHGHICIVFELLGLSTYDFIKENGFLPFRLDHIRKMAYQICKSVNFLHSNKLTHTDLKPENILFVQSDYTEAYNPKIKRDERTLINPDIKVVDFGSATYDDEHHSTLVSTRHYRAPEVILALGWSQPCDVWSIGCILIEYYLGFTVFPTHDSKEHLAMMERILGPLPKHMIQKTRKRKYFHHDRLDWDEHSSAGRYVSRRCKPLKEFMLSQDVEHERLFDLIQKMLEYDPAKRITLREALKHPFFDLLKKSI
pIC50: −log10 of the molar value.
Test readout: pIC50

Solved entries (count: 2):
O=c1c2c(ccc3nc(NCCN4CCOCC4)sc32)ncn1C1CC1 [Compound 14d] | 5.09
O=c1c2c(ccc3nc(Nc4ccccc4)sc32)ncn1C1CC1 | 5.47

I: N=C(c1nc2ccc3ncn(C4CC4)c(=O)c3c2s1)N1CCOCC1 [Compound 17e]
II: O=c1c2cc(Nc3nc4ccccc4s3)ccc2ncn1C1CC1 [Compound 10a]
III: N=C(c1nc2ccc3ncn(C4CC4)c(=O)c3c2s1)N1CCCCC1 [Compound 17f]
Input: List the 3 entries from lowest pIC50 to highest pIC50 value. The labels, placed in the requested order, form the answer.
Output: II, III, I
(II: 5.28, III: 6.21, I: 6.42)
